Recorded values, source the METLIN SMRT retention time set (Domingo-Almenara et al. 2019).

Task for the reader: assign each of the following compounds its reported RP-LC retention time.
- test: gradient 5% acetonitrile 3 min, to 50% in 2 min, to 85% in 15 min, held 3 min, 100 µL/min
- recorded-conditions: column: Zorbax Extend-C18 2.1 x 50 mm; eluents: water / acetonitrile, 0.1% formic acid
Give bare numbers, in s.

Worked examples, 3 compounds total:
- compound: "Cc1cc(C)c(NC(=O)Cn2nc3cc(C)nc(-c4ccccc4)n3c2=O)c(C)c1"
  RP-LC retention time [s]: 867
- compound: "COc1ccc(N2CCN(C(=O)C3CCN(CCc4c[nH]c5ncccc45)CC3)CC2)cc1"
  RP-LC retention time [s]: 567
- compound: "O=C(NCc1ccccc1Br)C1CCN(c2nnc(-c3ccccc3)o2)CC1"
  RP-LC retention time [s]: 880

Could you tell me RP-LC retention time for each of these compounds? They are listed below.
1. CCCN1C(=O)CN(S(C)(=O)=O)CC1(C)C(=O)NCc1ccc(Cl)cc1 (centres undefined)
2. CCC(C)NC(=O)c1cn(CCOC)cc2c(=O)n(-c3ccccc3)nc1-2 (centres undefined)
3. Cc1ccc(CNC(=O)COc2ccccc2-c2nnc(-c3ccccc3)o2)o1
4. CCOc1ccc(Cl)cc1S(=O)(=O)N1CCC(C(=O)NCCCO)CC1
5. CCC(=O)NCc1nc2c(n1CC)CN(C(=O)c1cccc(C(F)(F)F)c1)CC2
6. CS(=O)(=O)N1CCCN(C(=O)Nc2ccccc2)CC1
7. CC1CCN(Cc2nc3cc(NC(=O)c4ccco4)ccc3n2C(C)C)CC1
8. Cc1ccc(-c2cc(C(F)(F)F)on2)cc1S(=O)(=O)N1CCC(C)CC1

1: 758; 2: 819; 3: 1040; 4: 688; 5: 603; 6: 649; 7: 643; 8: 1280

###

- test: gradient 5% acetonitrile 3 min, to 50% in 2 min, to 85% in 15 min, held 3 min, 100 µL/min
- recorded-conditions: column: Zorbax Extend-C18 2.1 x 50 mm; eluents: water / acetonitrile, 0.1% formic acid
metric-name: RP-LC retention time
Answer with the figure and its unit, nothing else.

- molecule: "Cc1ccc(S(=O)(=O)NCC(=O)Oc2ccccc2C)cc1"
  metric-name: "RP-LC retention time"
  experimental-value: "881 s"

Each of the following entries comes with a recorded value; kindly state RP-LC retention time for each.
1. CC(C)(C)c1cc(C(=O)Nc2cccc(C#N)c2)nc2ccnn12
2. COc1ccc(Nc2c(C(=O)N3CCC(C)CC3)cnc3nc(C)ccc23)c(OC)c1
3. O=C(NCc1cccc(C(F)(F)F)c1)C1CCCN(c2cnc3nccnc3c2)C1 (centres undefined)
4. Cc1cccc(-c2nn3c(c2-c2ccnc4ccc(C(N)=O)cc24)CCC3)n1

1: 1170 s; 2: 662 s; 3: 754 s; 4: 612 s

Please give RP-LC retention time, item by item, for the list that follows.
1. Cn1nc(C(=O)N2C[C@@H]3C[C@H](NC(=O)c4cccnc4)[C@H]2C3)c2ccccc21
2. O=C(CN1C(=O)C2CCCCN2c2ccc(C(=O)N3CCCCC3)cc21)NCc1ccco1 (centres undefined)
3. Cc1cc(N2CCN(C(=O)c3ccc(Br)o3)CC2)nc(N2CCCC2)n1
4. Cc1ccccc1NC(=O)CN1CCc2[nH]c3c(C)cc(F)cc3c(=O)c2C1
5. COc1ccc(N2CCN(c3cc(SCC(=O)Nc4ccc(C)cc4F)ncn3)CC2)cc1
6. COc1ccc(S(=O)(=O)N2CCN(c3cc(C)nc(NC4CCCCC4)n3)CC2)cc1
7. O=C(CCc1c(-c2ccc(Br)cc2)nc2ccccn12)NCc1ccco1
8. C=CCNc1nc(-c2ccc(Cl)cc2)cs1

1. 636 s
2. 784 s
3. 636 s
4. 608 s
5. 1110 s
6. 770 s
7. 660 s
8. 984 s

Would you mind listing RP-LC retention time for each of the following molecules?
1. Cc1ccc(-c2cc3c4nnc(CCC(=O)NCCCOC(C)C)n4ccn3n2)cc1C
2. COc1ccc(N2CC(c3nc(-c4ccccc4Cl)no3)CC2=O)cc1OC (centres undefined)
3. CCCS(=O)(=O)c1nc2ccc(NS(=O)(=O)c3c(C)cc(C)cc3C)cc2s1
4. CNC(=O)c1nc(C(=O)NCc2ccc(C)cc2)cs1

1. 759 s
2. 878 s
3. 1030 s
4. 739 s

Would you be so kind as to report RP-LC retention time for each listed record?
1. COc1ccc(N2CC(c3noc(-c4ccc(C)cc4C)n3)CC2=O)cc1 (centres undefined)
2. CS(=O)(=O)N1C[C@H]2CCN(Cc3cn[nH]c3-c3ccccc3)C[C@H]21

1. 1000 s
2. 574 s
